# EXPERIMENTAL PROTOCOL: Pharmacokinetic analysis and plasma drug concentrations (LC-MS/MS)
# Format: in vivo, APOE*3Leiden.CETP mice
# EXPERIMENTAL CONTEXT: APOE*3Leiden.CETP, mouse, plasma, po; repeated dose, QD, 3 mg/kg, after 16 weeks
OBSERVED PROPERTY: Tmax (h)
Output spec: scalar in h, unitless text.

Supply reported Tmax belonging to this compound: Cc1ccc(C(=O)Nc2ccc(CN3CCN(C)CC3)c(C(F)(F)F)c2)cc1C#Cc1cnc2cccnn12
6.72

###

# EXPERIMENTAL PROTOCOL: Pharmacokinetic analysis and plasma drug concentrations (LC-MS/MS)
# Format: in vivo, APOE*3Leiden.CETP mice
# EXPERIMENTAL CONTEXT: APOE*3Leiden.CETP, mouse, plasma; single oral gavage, 5 mg/kg
# Method: Animal experiments were approved by the Institutional Animal Care and Use Committee of The Netherlands Organization for Applied Research under registration number 3557. PK analysis and plasma drug concentrations […] curves ranging from 1 nM to 6 uM were fitted with a quadratic regression weighted by reciprocal concentration (1/x). LLOQ for the purposes of this assay was between 1 and 2 nM for all compounds analyzed. […]
OBSERVED PROPERTY: Cmax (ng/mL)
Output spec: scalar in ng/mL, unitless text.

Supply reported Cmax belonging to this compound: Cc1ccc(C(=O)Nc2ccc(CN3CCN(C)CC3)c(C(F)(F)F)c2)cc1C#Cc1cnc2cccnn12 [Ponatinib, ponatinib]
190

###

# EXPERIMENTAL PROTOCOL: Pharmacokinetic analysis and plasma drug concentrations (LC-MS/MS)
# Assay type: in vivo, APOE*3Leiden.CETP mice
# EXPERIMENTAL CONTEXT: APOE*3Leiden.CETP, mouse, plasma; single oral gavage, 100 mg/kg
OBSERVED PROPERTY: Tmax (h)
Output spec: scalar in h, unitless text.

Supply reported Tmax belonging to this compound: Cc1ccc(NC(=O)c2ccc(CN3CCN(C)CC3)cc2)cc1Nc1nccc(-c2cccnc2)n1 [Imatinib, imatinib]
2.28

###

# EXPERIMENTAL PROTOCOL: Pharmacokinetic analysis and plasma drug concentrations (LC-MS/MS)
# Format: in vivo, APOE*3Leiden.CETP mice
# EXPERIMENTAL CONTEXT: APOE*3Leiden.CETP, mouse, plasma, po; repeated dose, QD, 30 mg/kg, after 16 weeks
# Experimental: Animal experiments were approved by the Institutional Animal Care and Use Committee of The Netherlands Organization for Applied Research under registration number 3557. PK analysis and plasma drug concentrations […] curves ranging from 1 nM to 6 uM were fitted with a quadratic regression weighted by reciprocal concentration (1/x). LLOQ for the purposes of this assay was between 1 and 2 nM for all compounds analyzed. […]
OBSERVED PROPERTY: Cmax (ng/mL)
Output spec: scalar in ng/mL, unitless text.

Supply reported Cmax belonging to this molecule: Cc1cn(-c2cc(NC(=O)c3ccc(C)c(Nc4nccc(-c5cccnc5)n4)c3)cc(C(F)(F)F)c2)cn1
6890

###

# EXPERIMENTAL PROTOCOL: Pharmacokinetic analysis and plasma drug concentrations (LC-MS/MS)
# Assay type: in vivo, APOE*3Leiden.CETP mice
# EXPERIMENTAL CONTEXT: APOE*3Leiden.CETP, mouse, plasma; single oral gavage, 50 mg/kg
OBSERVED PROPERTY: Cmax (ng/mL)
Output spec: scalar in ng/mL, unitless text.

Supply reported Cmax belonging to this compound: Cc1cn(-c2cc(NC(=O)c3ccc(C)c(Nc4nccc(-c5cccnc5)n4)c3)cc(C(F)(F)F)c2)cn1 [Nilotinib, nilotinib]
11000
